Each record here notes measured Emax.
# Tested on: anesthetized guinea-pig
# protocol.notes: Inotropic effect and lethal dose, slow intravenous infusion in anesthetized guinea-pig
# Type: in vivo
# measurement.parameters: Cavia porcellus, iv, 1.5 h; slow i.v. infusion over 90 minutes, anesthetized guinea-pig; maximum increase in contractile force; read-out: Emax % increase in +dP/dTmax
Where a name gives a salt, the structure may show the parent alone.
parameter.measured: Emax (%)

{"compound": "CC12CCC3C(CC(O)C4CC(=NOC5CCNC5)CCC43C)C1CCC2=O (single isomer, unassigned) [I-dp, hydrochloride]", "result.number": 358}
{"compound": "C=C1C[C@H]2[C@@H]3CCC(=O)[C@@]3(C)CC[C@@H]2[C@@]2(C)CCC(=NO[C@@H]3CCNC3)C[C@]12O (mixture of isomers) [I-bh, hydrochloride]", "result.number": 173}
{"compound": "C[C@]12CC[C@H]3[C@@H](CC[C@@]4(O)CC(=NO[C@@H]5CCNC5)CC[C@]34C)[C@@H]1CCC2=O (mixture of isomers) [I-am]", "result.number": 221}
